Below are IC50 measurements against Coagulation factor X (Homo sapiens, UniProt P00742) drawn from the literature.
Numbers only, in nM.

| COMPOUND | TEST_TARGET | UNIT_ABBREVIATION | IC50 |
| --- | --- | --- | --- |
| N=C(N)c1cccc(OC(C(=O)Nc2ccc(C(=O)N3CCCC3)cc2)c2ccccc2)c1 (configuration not stated) | Coagulation factor X (Homo sapiens, UniProt P00742) | nM | 0.18 |

# batch size: 8; output IC50 per entry
1. N=C(N)NCc1cccc(-c2ccc(C(=O)Nc3ccc(Cl)cc3C(=O)Nc3ccc(Cl)cn3)cc2)c1
2. CO[C@H]1O[C@H](COS(=O)(=O)O)[C@@H](O[C@@H]2O[C@@H](C(=O)O)[C@@H](O[C@@H]3O[C@H](COS(=O)(=O)O)[C@@H](O[C@@H]4O[C@H](C(=O)O)[C@@H](O[C@H]5O[C@H](COS(=O)(=O)O)[C@@H](O)[C@H](O)[C@H]5NS(=O)(=O)O)[C@H](O)[C@H]4O)[C@H](OS(=O)(=O)O)[C@H]3NS(=O)(=O)O)[C@H](OS(=O)(=O)O)[C@H]2OS(=O)(=O)O)[C@H](O)[C@H]1NS(=O)(=O)O
3. C/C(=C(\F)C(=O)Nc1ccc(-c2ccccc2S(N)(=O)=O)cc1)c1cccc(C(=N)NO)c1
4. N=C(N)NCCC[C@@H](NS(=O)(=O)Cc1ccccc1)C(=O)NCC(=O)N[C@@H](Cc1ccncc1)C(=O)c1nccs1
5. N=C(N)NCCCC(NC(=O)CN1CCN(S(=O)(=O)c2ccc(C(=O)O)cc2)CC1=O)C(=O)c1nccs1 (configuration not stated)
6. COc1ccc(-n2cc(C#N)c3ncn(-c4ccc(N5CCC[C@H]5C(N)=O)cc4)c(=O)c32)cc1
7. COC(=O)CC1CN(S(=O)(=O)c2cc3cc(Cl)ccc3[nH]2)CCN1C(=O)c1ccc(C2=NCCN2C)cc1 (configuration not stated)
8. Cc1cc(C(=O)Nc2ccc(C(=N)N3CCCCC3)cc2F)n(-c2ccc3cc(Cl)ccc3c2)n1

1: 9.5; 2: 9.25; 3: 440; 4: 44; 5: 510; 6: 3.69; 7: 3; 8: 7
